Cited source for all entries: patent US20140378460A1

In this section, each of the compounds is paired with its reported Ki.
molecular target: Sigma-1 receptors (Homo sapiens); test: Sigma-1 competitive radioligand binding, [3H](+)pentazocine, Jurkat cell membranes; conditions: Sigma 1 Binding Ki (nM), Table 2, own compounds
Sequence (Q99720 whole entry): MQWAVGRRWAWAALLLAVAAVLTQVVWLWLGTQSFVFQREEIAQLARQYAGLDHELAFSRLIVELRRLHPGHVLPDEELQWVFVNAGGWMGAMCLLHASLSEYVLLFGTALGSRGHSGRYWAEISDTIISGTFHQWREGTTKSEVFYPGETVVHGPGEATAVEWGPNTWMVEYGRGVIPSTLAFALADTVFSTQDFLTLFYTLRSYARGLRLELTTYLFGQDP
Give the value in nM but do not write nM after it.

Recorded Ki, per entry:
COc1cc(CCC(C)NCc2ccc(C(F)(F)F)cc2)ccc1O (single isomer, unassigned) [II (−) isomer]	46
COc1cc(CCC(C)NCc2ccc(C(F)(F)F)cc2)ccc1O (single isomer, unassigned) [II (+) isomer]	100

Exam item: Quickly give me recorded Ki for COc1cc(CCC(C)NCc2ccc(C(F)(F)F)cc2)ccc1O (stereo not drawn) [Compound II]
Marked response: 500
